Can you tell me Population Membrane Permeable-Phenotype (%) for the items I'm about to list?
- Test system: HEK-293T
- measurement protocol: Multiplex assay against HEK293T
- Format: toxicity, cell-based
- experimental setup: human, 24 h, 10 µM, compound concentration 10 uM, replicate 2
One number for each entry, in %.

Example results:
>>> experimental_value("OC1(c2ccc(Cl)cc2)CCN(Cc2c[nH]c3ccccc23)CC1")
15
>>> experimental_value("CN1CCCC(n2nc(Cc3ccc(Cl)cc3)c3ccccc3c2=O)CC1.Cl (stereo not drawn) [AZELASTINE HYDROCHLORIDE]")
4
>>> experimental_value("Cc1sc2c(c1C)C(c1ccc(Cl)cc1)=N[C@@H](CC(=O)OC(C)(C)C)c1nnc(C)n1-2")
0

Can you give me Population Membrane Permeable-Phenotype (%) for all of these, one by one?
1. c1cn2cc(-c3ccc4cn[nH]c4c3)nc(Nc3ccc(N4CCOCC4)cc3)c2n1
2. CC(C)(O)CNc1ncc(-c2ccnc(Nc3ccnc(Cl)c3)n2)c(CC2CC2)n1
3. Cn1c(-c2csc(C3CCN(CC4=NC5N=CC=CC5N4)CC3)n2)nc2ccccc21 (stereo not drawn)
4. CN1CCN(c2ccc(OC(F)(F)F)c(Nc3ncc4c(n3)-c3c(c(C(N)=O)nn3CCO)CC4)c2)CC1

-- reply
[4, 40, 5, 4]

Can you give me Population Membrane Permeable-Phenotype (%) for all of these, one by one?
1. Cc1cc(C)cc(-c2cnc3cc(Cl)c(-c4cccc(O)c4)cc3c2OCCCN)c1
2. CCN(CC)CCCCNc1ncc2cc(-c3cc(OC)cc(OC)c3)c(NC(=O)NC(C)(C)C)nc2n1
3. CN(C)C(=O)N[C@H]1CC[C@H](CCN2CCN(c3cccc(Cl)c3Cl)CC2)CC1.Cl [CARIPRAZINE HYDROCHLORIDE]
4. CN1CCC[C@@H]1CCO[C@](C)(c1ccccc1)c1ccc(Cl)cc1.O=C(O)/C=C/C(=O)O [CLEMASTINE FUMARATE]
5. COc1cccc([C@@H](C)NCCCc2ccccc2Cl)c1.Cl [TECALCET HYDROCHLORIDE]
6. Cc1[nH]c(/C=C2\C(=O)Nc3ccc(S(=O)(=O)N(C)c4cccc(Cl)c4)cc32)c(C)c1C(=O)N1CCN(C)CC1

-- reply
1. 6
2. 20
3. 2
4. 6
5. 1
6. 10

----------
- System: Fibroblast
- measurement protocol: Multiplex assay against human fibroblast
- Assay type: toxicity, cell-based
- experimental setup: 48 h, 1 µM, compound concentration 1 uM, replicate 1
One threshold, 20%, splits the recorded Population Membrane Permeable-Phenotype (%) values: lower ones are fulfilled, equal or higher ones are not fulfilled.

-- ask # check: Population Membrane Permeable-Phenotype (%) < 20% for c1cn2cc(-c3ccc4cn[nH]c4c3)nc(Nc3ccc(N4CCOCC4)cc3)c2n1 [ENTOSPLETINIB]
-- reply fulfilled

-- ask Next compound: OC1(c2ccc(Cl)cc2)CCN(Cc2c[nH]c3ccccc23)CC1
-- reply not fulfilled

-- ask Next compound: Cc1cc(C)cc(-c2cnc3cc(Cl)c(-c4cccc(O)c4)cc3c2OCCCN)c1
-- reply not fulfilled

----------
- Tested on: HEK-293T
- measurement protocol: Multiplex assay against HEK293T
- Assay type: toxicity, cell-based
- experimental setup: human, 24 h, 10 µM, compound concentration 10 uM, replicate 2
metric: Population Fragmented Nuclei (%)
Give bare numbers, in %.

Example results:
>>> experimental_value("O=C(NCCN1CCOCC1)c1ccc2c(c1)C(=O)c1ccc(Nc3ccc(F)c(NC(=O)c4ccccc4)c3)cc1CC2 [FS-694]")
5
>>> experimental_value("OC1(c2ccc(Cl)cc2)CCN(Cc2c[nH]c3ccccc23)CC1")
5
>>> experimental_value("Cc1c(-c2ccc(O)cc2)n(Cc2ccc(OCCN3CCCCCC3)cc2)c2ccc(O)cc12 [BAZEDOXIFENE]")
9

-- ask Quick check: Population Fragmented Nuclei (%) of C=CC(=O)Nc1cccc(C(=O)Nc2ccc(Nc3cc(-c4[nH]c(SC)nc4C)ccn3)cc2)c1 ?
-- reply 5

----------
- Tested on: Fibroblast
- measurement protocol: Multiplex assay against human fibroblast
- Type: toxicity, cell-based
- experimental setup: 12 h, 1 µM, compound concentration 1 uM, replicate 2
metric: Population Fragmented Nuclei (%)
One number for each entry, in %.

Example results:
>>> experimental_value("C=CC(=O)Nc1cc2c(Nc3ccc(F)c(Cl)c3)ncnc2cc1OCCCN1CCOCC1.Cl.Cl [CANERTINIB DIHYDROCHLORIDE]")
58
>>> experimental_value("Cn1cc(-c2[nH]c3cc(NC(=O)[C@H](N)C4CCCCC4)cc4c3c2C=NNC4=O)cn1")
13
>>> experimental_value("C=CC(=O)Nc1ccc2ncnc(Nc3ccc(OCc4cccc(F)c4)c(Cl)c3)c2c1.Cc1ccc(S(=O)(=O)O)cc1")
6

Continue with the next molecule.
-- ask Quick check: Population Fragmented Nuclei (%) of Cc1nc(Nc2n[nH]c3c2CN(C(=O)N[C@H](CN(C)C)c2ccccc2)C3(C)C)c2sccc2n1 ?
-- reply 54

----------
- Test system: HEK-293T
- measurement protocol: Multiplex assay against HEK293T
- Type: toxicity, cell-based
- experimental setup: human, 12 h, 10 µM, compound concentration 10 uM, replicate 1
metric: Population Healthy Nuclei (%)
Give bare numbers, in %.

>>> experimental_value("COc1cc(-n2cnc3cc(-c4ccc(Cl)cc4)sc3c2=O)ccc1OCCN1CCCC1")
1
>>> experimental_value("COc1cc2nccc(Oc3ccc(NC(=O)Nc4cc(C)on4)c(Cl)c3)c2cc1OC.O")
21
>>> experimental_value("Cc1nc(Nc2n[nH]c3c2CN(C(=O)N[C@H](CN(C)C)c2ccccc2)C3(C)C)c2sccc2n1 [PF-03758309]")
49
>>> experimental_value("C=CC(=O)Nc1ccc2ncnc(Nc3ccc(OCc4cccc(F)c4)c(Cl)c3)c2c1.Cc1ccc(S(=O)(=O)O)cc1")
38
>>> experimental_value("CN1CCN(c2ccc(OC(F)(F)F)c(Nc3ncc4c(n3)-c3c(c(C(N)=O)nn3CCO)CC4)c2)CC1 [ONVANSERTIB]")
41

Can you give me Population Healthy Nuclei (%) for all of these, one by one?
1. C=CC(=O)Nc1cc2c(Nc3ccc(F)c(Cl)c3)ncnc2cc1OCCCN1CCOCC1.Cl.Cl [CANERTINIB DIHYDROCHLORIDE]
2. CN1CCC[C@@H]1CCO[C@](C)(c1ccccc1)c1ccc(Cl)cc1.O=C(O)/C=C/C(=O)O [CLEMASTINE FUMARATE]
3. Cc1nc(-c2cn3c(n2)-c2ccc(-c4cnn(C(C)(C)C(N)=O)c4)cc2OCC3)n(C(C)C)n1 [TASELISIB]
4. C=CC(=O)Nc1cccc(C(=O)Nc2ccc(Nc3cc(-c4[nH]c(SC)nc4C)ccn3)cc2)c1
5. Cc1csc2c(N[C@@H](C)CN3CCN(S(=O)(=O)c4ccc(Cl)c(Cl)c4)CC3)ncnc12
6. Cc1c(-c2ccc(O)cc2)n(Cc2ccc(OCCN3CCCCCC3)cc2)c2ccc(O)cc12 [BAZEDOXIFENE]
7. CN(C)CC#Cc1ccc(OCCCc2sc(N3CCc4cccc(C(=O)Nc5nc6ccccc6s5)c4C3)nc2C(=O)O)c(F)c1 [A-1155463]
8. C[C@@H](NCCCc1cccc(C(F)(F)F)c1)c1cccc2ccccc12.Cl [CINACALCET HYDROCHLORIDE]

-- reply
60
17
49
30
5
8
41
13

-- ask Quick check: Population Healthy Nuclei (%) of CN(C)C(=O)N[C@H]1CC[C@H](CCN2CCN(c3cccc(Cl)c3Cl)CC2)CC1.Cl [CARIPRAZINE HYDROCHLORIDE] ?
-- reply 25

----------
- Test system: U2OS
- measurement protocol: Multiplex assay against U2OS
- Type: toxicity, cell-based
- experimental setup: human, 24 h, 10 µM, compound concentration 10 uM, replicate 2
metric: Population Mitochondria Different-Phenotype (%)
Numbers only, in %.

>>> experimental_value("COc1cc(-n2cnc3cc(-c4ccc(Cl)cc4)sc3c2=O)ccc1OCCN1CCCC1")
89
>>> experimental_value("COc1cccc([C@@H](C)NCCCc2ccccc2Cl)c1.Cl [TECALCET HYDROCHLORIDE]")
91
>>> experimental_value("CC[C@H](C)C(=O)O[C@H]1C[C@@H](C)C=C2C=C[C@H](C)[C@H](CC[C@@H]3C[C@@H](O)CC(=O)O3)[C@H]21 [LOVASTATIN]")
4
>>> experimental_value("C[C@@H](NCCCc1cccc(C(F)(F)F)c1)c1cccc2ccccc12.Cl [CINACALCET HYDROCHLORIDE]")
88
>>> experimental_value("Cl.N#Cc1ccc2[nH]cc(CCCCN3CCN(c4ccc5oc(C(N)=O)cc5c4)CC3)c2c1 [VILAZODONE HYDROCHLORIDE]")
90

Can you give me Population Mitochondria Different-Phenotype (%) for all of these, one by one?
1. CN(C)C(=O)/C(C#N)=C/c1ccc(-c2nc3cnc4[nH]ccc4c3n2C2CCCCC2)o1
2. Cc1csc2c(N[C@@H](C)CN3CCN(S(=O)(=O)c4ccc(Cl)c(Cl)c4)CC3)ncnc12

-- reply
49
97

-- ask Quick check: Population Mitochondria Different-Phenotype (%) of Cc1[nH]c(/C=C2\C(=O)Nc3ccc(S(=O)(=O)N(C)c4cccc(Cl)c4)cc32)c(C)c1C(=O)N1CCN(C)CC1 ?
-- reply 100
